B1: TRIM39 (parent)
chain: ERDFPCPVCRKTSRYRSLRPNRQL

Variants of: B1
protocol.description: protein stability index of a GFP-peptide fusion (GPS, HEK-293T) (PSI 1-6); higher = more stable;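 note: lentivirally expressed fusions sorted by FACS into six bins by GFP to DsRed ratio, PSI derived from sequencing read proportions per bin multiplied by bin number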
test.parameters: c terminus: a fixed tail appended
endpoint.name: protein stability index
// print number alone

- variant.identifier: "R2F"
  protein stability index: 1.83
- variant.identifier: "Y15K"
  protein stability index: 3.33
- variant.identifier: "R22V"
  protein stability index: 1.76
- variant.identifier: "C6V"
  protein stability index: 3.23
- variant.identifier: "F4R"
  protein stability index: 2.09
- variant.identifier: "R14D"
  protein stability index: 2.08

[ask] Recorded protein stability index for `R2K` , please?
[reply] 2.02

[ask] Recorded protein stability index for `C9Q` , please?
[reply] 3.81

[ask] Recorded protein stability index for `L18D` , please?
[reply] 2.71
